The measurements presented in this section are drawn from PubChem BioAssay AID1918934.

system: 292921-168-R-J2-PDC complex spheroid viability; assay: Anticancer human tumor 292921-168-R-J2-PDC patient-derived pancreatic carcinoma cell line growth inhibition; conditions: second compound 1 µM; first compound 3.16 µM; hits give low values
Field 'label' (enum: yes / no). Set to yes when viability, T/C is strictly under 40%; else no.

Study these solved cases before continuing.
- molecule: "CC1(C)CCC(CN2CCN(c3ccc(C(=O)NS(=O)(=O)c4ccc(NCC5CCOCC5)c([N+](=O)[O-])c4)c(Oc4cnc5[nH]ccc5c4)c3)CC2)=C(c2ccc(Cl)cc2)C1 + NC1CCC(NC2CC2c2ccccc2)CC1"
  category-label: "yes"
- molecule: "CC1COCCN1c1cc(C2(S(C)(=N)=O)CC2)nc(-c2ccnc3[nH]ccc23)n1 (stereo not given) + NC1CCC(NC2CC2c2ccccc2)CC1"
  category-label: "yes"
- molecule: "CC(C)c1c(-c2ccccc2)nc2c(C#N)c[nH]n2c1=O + NC1CC1c1ccc(-c2cccc(O)c2)cc1"
  category-label: "no"
- molecule: "O=C(c1cc(Cc2n[nH]c(=O)c3ccccc23)ccc1F)N1CCN(C(=O)C2CC2)CC1 + NC1CCC(NC2CC2c2ccccc2)CC1"
  category-label: "no"
- molecule: "COc1ccc([C@@H](O)c2cc(-c3ncnc4cc(N5CCOCC5)ccc34)c(F)cc2Cl)nn1 + NC1CCC(NC2CC2c2ccccc2)CC1"
  category-label: "yes"
- molecule: "CC(C)c1c(-c2ccccc2)nc2c(C#N)c[nH]n2c1=O + NC1CCC(NC2CC2c2ccccc2)CC1"
  category-label: "no"

In: Does CC1COCCN1c1cc(C2(S(C)(=N)=O)CC2)nc(-c2ccnc3[nH]ccc23)n1 (stereo not given) + NC1CC1c1ccc(-c2cccc(O)c2)cc1 have viability, T/C strictly under 40%?
Out: yes

In: Next: O=C(c1cc(Cc2n[nH]c(=O)c3ccccc23)ccc1F)N1CCN(C(=O)C2CC2)CC1 + NC1CC1c1ccc(-c2cccc(O)c2)cc1
Out: no

In: # repeat for COc1ccc([C@@H](O)c2cc(-c3ncnc4cc(N5CCOCC5)ccc34)c(F)cc2Cl)nn1 + NC1CC1c1ccc(-c2cccc(O)c2)cc1
Out: yes

In: Can you check CC1(C)CCC(CN2CCN(c3ccc(C(=O)NS(=O)(=O)c4ccc(NCC5CCOCC5)c([N+](=O)[O-])c4)c(Oc4cnc5[nH]ccc5c4)c3)CC2)=C(c2ccc(Cl)cc2)C1 + NC1CC1c1ccc(-c2cccc(O)c2)cc1 next?
Out: yes

* * *

system: 292921-168-R-J2-PDC complex spheroid viability; assay: Anticancer human tumor 292921-168-R-J2-PDC cell line growth inhibition; conditions: second compound 0.1 µM; first compound 0.001 µM; active = viability on the fitted dose curve at most 10% of control; inactive = the rest;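 further: seven day compound exposure before luminescent viability read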
Form entry, call: pick from active, inactive

- compound: "Cn1ncnc1C1c2n[nH]c(=O)c3cc(F)cc(c23)NC1c1ccc(F)cc1 (stereo not drawn) + NC1CCC(NC2CC2c2ccccc2)CC1"
  category-label: "inactive"
- compound: "CC(C)CC(NC(=O)C(Cc1ccccc1)NC(=O)c1cnccn1)B(O)O (stereo not drawn) + NC1CC1c1ccc(-c2cccc(O)c2)cc1"
  category-label: "active"
- compound: "Cn1ncnc1C1c2n[nH]c(=O)c3cc(F)cc(c23)NC1c1ccc(F)cc1 (stereo not drawn) + NC1CC1c1ccc(-c2cccc(O)c2)cc1"
  category-label: "inactive"
- compound: "CC[C@@]1(O)C(=O)OCc2c1cc1n(c2=O)Cc2cc3c(CN(C)C)c(O)ccc3nc2-1 + NC1CC1c1ccc(-c2cccc(O)c2)cc1"
  category-label: "inactive"
- compound: "CC[C@@]1(O)C(=O)OCc2c1cc1n(c2=O)Cc2cc3c(CN(C)C)c(O)ccc3nc2-1 + NC1CCC(NC2CC2c2ccccc2)CC1"
  category-label: "inactive"
- compound: "CC(C)CC(NC(=O)CNC(=O)c1cc(Cl)ccc1Cl)B1OC(=O)CC(CC(=O)O)(C(=O)O)O1 (stereo not drawn) + NC1CCC(NC2CC2c2ccccc2)CC1"
  category-label: "inactive"
- compound: "CC(C)CC(NC(=O)C(Cc1ccccc1)NC(=O)c1cnccn1)B(O)O (stereo not drawn) + NC1CCC(NC2CC2c2ccccc2)CC1"
  category-label: "active"

Here is the next item to consider.
In: Dear colleague, could you share the recorded outcome for CC(C)CC(NC(=O)CNC(=O)c1cc(Cl)ccc1Cl)B1OC(=O)CC(CC(=O)O)(C(=O)O)O1 (stereo not drawn) + NC1CC1c1ccc(-c2cccc(O)c2)cc1 when you have a moment?
Out: inactive
